# System: DLD-1
# METHOD_DESCRIPTION: NCI tumour cell line growth inhibition, 48 h
Active and inactive are the calls of the source. Rule as the data show it: active = GI50 up to about 1.1 µM and inactive = higher. Non-standard residues stand in square brackets, D forms with d. Residues, ends and D or L forms follow the SMILES beside them. ξ: configuration not given here. *: point of attachment. ξNMeF = CNC(Cc1ccccc1)C(=O)O; NMeV = CN[C@H](C(=O)O)C(C)C; Boc = CC(C)(C)OC(=O)*; OBn = c1ccc(CO*)cc1
ATTRIBUTE_MEASURED: GI50

1. Cc1cc(N(CCC#N)CCC#N)ccc1CC1N=C(c2ccccc2)OC1=O (centres undefined) : > 100 µM (inactive)
2. COC1OCC(O)C(NC(=O)N(C)N=O)C1O (centres undefined) : > 100 µM (inactive)
3. CC(C)[C@@H](C(=O)N(C)[C@H](C(=O)N1CCC[C@H]1C(=O)OCc1ccccc1)C(C)C)N(C)C(=O)C(Cc1ccccc1)N(C)C(=O)[C@H](NC(=O)OC(C)(C)C)C(C)C (some centres undefined) (Boc-[dV][ξNMeF][NMeV][NMeV]P-OBn) : > 31.6 µM (inactive)
4. COC1CCC2C(NS(=O)(=O)c3ccc(C)cc3)CCCC2O1.Cc1ccc(S(=O)(=O)NC(C)(C)C=O)cc1 (centres undefined) : 20.3 µM (inactive)
5. CC(=O)OC1(C)C(=O)OC1(C)C(C)=O (centres undefined) : > 100 µM (inactive)
6. CC(=O)OC(C)(C)[C@@H]1CC[C@]2(C)/C=C/[C@H](C)C[C@@H](O)C3=C(C)C[C@@H](O3)C12 (some centres undefined) : > 100 µM (inactive)
7. O=C1c2ccccc2C(=O)C2C1C1C(=O)c3ccccc3C(=O)C21 (centres undefined) : 15.2 µM (inactive)
8. CCCCCCCCCCCc1nnc(N)o1 : > 100 µM (inactive)
9. CC1CC#CCOC(=O)CCCC1=O (centres undefined) : > 100 µM (inactive)
